test system: T1, Anti-CD28 Fab (SEQ ID NOs: 202, 203)
T1 construct: biotinylated and captured on neutravidin coated plates in the phage ELISA
T1 sequence (VH, as listed by the source, chain 1 of 2): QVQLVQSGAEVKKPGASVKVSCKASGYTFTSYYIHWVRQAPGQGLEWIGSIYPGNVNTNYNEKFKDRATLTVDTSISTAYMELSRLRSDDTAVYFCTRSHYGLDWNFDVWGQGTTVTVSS
T1 sequence (VL, as listed by the source, chain 2 of 2): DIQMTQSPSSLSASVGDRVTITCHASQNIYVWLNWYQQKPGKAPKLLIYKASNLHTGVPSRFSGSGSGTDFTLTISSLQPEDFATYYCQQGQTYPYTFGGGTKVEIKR
assay method text: phage binding ELISA, Fab on plate;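 further: clonal phage supernatant ELISA, wells preincubated with CD28 antigen or blocking buffer only, then bound phage detected using HRP-linked anti-M13 antibody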
experimental readout: Anti-CD28 Fab (SEQ ID NOs: 202, 203) signal
Give your answer as a number; write no unit.

For orientation, consider the following solved cases.
[
  {
    "binder": "GCAAGFHYPWPLCL [Phage-1033]",
    "value observed": 1.74
  },
  {
    "binder": "TCAAGATYPWPECM [Phage-1082]",
    "value observed": 1.57
  }
]

Incoming: Field request: Anti-CD28 Fab (SEQ ID NOs: 202, 203) signal | item: MCSAGAMYPWPLCL [Phage-988]
Outgoing: 1.93

Incoming: Try SCSAGFHYPWPICL [Phage-1017] next.
Outgoing: 1.79

Incoming: Same question for SCAAVFSFPWSPCL [Phage-999] please.
Outgoing: 1.87

Incoming: Then TCSAGFSYKWPWCL [Phage-1080] ?
Outgoing: 1.57
